Values were extracted from the kinase profiling compilation of Christmann-Franck et al. (2016).

Each entry below lists one item and its recorded residual activity value.
# tested.on: PRKD3 (human) (UniProt O94806)
# Sequence (O94806 whole entry, looked up): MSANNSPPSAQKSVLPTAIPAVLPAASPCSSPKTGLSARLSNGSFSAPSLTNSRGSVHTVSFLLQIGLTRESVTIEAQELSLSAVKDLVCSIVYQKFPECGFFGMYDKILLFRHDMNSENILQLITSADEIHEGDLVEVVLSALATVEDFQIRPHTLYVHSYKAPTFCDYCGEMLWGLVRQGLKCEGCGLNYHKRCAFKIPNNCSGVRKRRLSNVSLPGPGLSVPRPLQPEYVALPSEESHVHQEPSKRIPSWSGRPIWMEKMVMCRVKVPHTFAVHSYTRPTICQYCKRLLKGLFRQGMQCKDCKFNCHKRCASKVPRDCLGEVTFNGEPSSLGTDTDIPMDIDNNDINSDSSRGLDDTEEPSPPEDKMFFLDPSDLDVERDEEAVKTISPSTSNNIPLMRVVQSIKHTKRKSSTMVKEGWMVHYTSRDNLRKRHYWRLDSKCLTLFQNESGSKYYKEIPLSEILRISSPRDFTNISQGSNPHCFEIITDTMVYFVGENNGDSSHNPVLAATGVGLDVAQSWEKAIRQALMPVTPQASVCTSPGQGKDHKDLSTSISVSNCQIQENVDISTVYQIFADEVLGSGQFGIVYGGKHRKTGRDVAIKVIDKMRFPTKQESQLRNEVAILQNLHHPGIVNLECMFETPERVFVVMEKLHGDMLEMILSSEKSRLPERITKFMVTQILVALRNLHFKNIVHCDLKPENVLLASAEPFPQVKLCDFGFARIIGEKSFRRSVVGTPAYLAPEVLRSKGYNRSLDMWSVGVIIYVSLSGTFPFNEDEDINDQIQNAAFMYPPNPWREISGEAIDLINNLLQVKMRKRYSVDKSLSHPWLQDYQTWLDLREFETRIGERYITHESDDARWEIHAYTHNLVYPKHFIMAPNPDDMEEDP
# protocol.notes: radiometric filter-binding kinase assay, Kinase HotSpot
# run.conditions: compound 0.5 µM; ATP 10 µM
parameter.measured: residual activity (%)

1) COc1ccc(S(=O)(=O)N(CCO)c2ccccc2CN(C)C/C=C/c2ccc(Cl)cc2)cc1: 97.1
2) C[C@@H]1CCN(C(=O)CC#N)C[C@@H]1N(C)c1ncnc2[nH]ccc12: 89.8
3) O=C1C(Cl)=C(N2C(=O)CCC2=O)C(=O)c2ccccc21: 88.2
4) O=C(c1cc2cc(O)ccc2[nH]1)c1cc2cc(O)ccc2[nH]1: 54.9
5) CN(C)c1ccc(/C=C2\C(=O)Nc3ccccc32)cc1: 99.2
6) CS(=O)(=O)CCNCc1ccc(-c2ccc3ncnc(Nc4ccc(OCc5cccc(F)c5)c(Cl)c4)c3c2)o1: 88.6
7) COc1ccc2c(c1)/C(=C/c1cnc[nH]1)C(O)=N2: 38
8) Cn1c2ccccc2c2c3c(c4c5ccccc5n(CCC#N)c4c21)CNC3=O: 7.3
9) CCCCc1c(-c2ccc(OC)cc2)[nH]c2nccnc12: 88.5
10) COc1ccc(C(=O)Nc2sc3c(c2C(N)=O)CCCC3)cc1OC: 103
11) N#C/C(=C\c1ccc(O)c(O)c1)C(=O)NCc1ccccc1: 90.2
12) Cc1cncc2cccc(S(=O)(=O)N3CCCN(C(=O)CN)C[C@H]3C)c12: 85.4
13) CN(C)S(=O)(=O)c1ccc2c(c1)/C(=C/c1cc3c([nH]1)CCCC3)C(=O)N2: 90.4
14) O=C1c2ccccc2-c2nc3nnnn3nc21: 83.4
15) NC(=O)c1cccc(-c2cc(Nc3ccc(OC(F)(F)F)cc3)ncn2)c1: 93.2
16) Ic1cccc(CSc2nnc(-c3ccncc3)o2)c1: 98.4
17) CC(C)(C)c1cc(C=C(C#N)C#N)cc(Br)c1O: 92.7
18) COc1ccc(Cl)cc1NC(=O)Nc1cc(C)nc2ccccc12: 97.1
19) O=C1Nc2ccc(Br)cc2/C1=C\c1cc2c([nH]1)CCCC2: 90.3
20) c1ccc2c(-c3ccncc3)c[nH]c2c1: 90.7
21) O=C1NC(=O)c2c1c1c3ccccc3[nH]c1n1cncc21: 47.7
22) Cc1nc(-c2ccccc2)c(-c2ccncc2)o1: 94.3
23) COc1ccc2c(c1)c(C1=C(c3c[nH]c4ccccc34)C(=O)NC1=O)cn2CCCN(C)C: 91.9
24) Fc1ccc(-c2nc3n(c2-c2ccncc2)CCS3)cc1: 88.2
25) COc1cc2ncnc(Nc3ccc(OCc4ccccc4)cc3)c2cc1OC: 95.3
26) COc1cc2ncnc(Nc3ccc(Oc4ccccc4)cc3)c2cc1OC: 95.8
27) CN(C)CCCn1cc(C2=C(c3c[nH]c4ccccc34)C(=O)NC2=O)c2ccccc21: 54.6
28) N#Cc1c[nH]c2c[nH]/c(=N\Cc3cccnc3)cc2/c1=N\c1ccc(F)c(Cl)c1: 90.4
29) COc1cc(Nc2c(C#N)cnc3cc(OCCCN4CCN(C)CC4)c(OC)cc23)c(Cl)cc1Cl: 42.2
30) Cc1cccc(-c2nc(C(C)(C)C)[nH]c2-c2ccc3c(c2)OCO3)n1: 89.3
